From: PubChem BioAssay

- ASSAYED_TARGET: Fibroblast growth factor 2 (Homo sapiens)
- EXPERIMENT_DESCRIPTION: FGF2 binders on small-molecule microarrays, primary screen, biochemical, small-molecule microarray, 635/667 nm fluorescence (AID 1133)
- CONDITION_DETAILS: small-molecule microarray binding, FGF2, fluorescence 635/667; higher = more signal
I would appreciate it if you labelled entries 1 when composite z-score is 0.4 or higher, otherwise -1.

Ask: Would you say CCOC(=O)[C@H](CC(C)C)NC(=O)CCC1CC(OC(=O)NCc2cccc3ccccc23)CC2(CCCC(COC(=O)NCCc3ccc(Cl)cc3)O2)O1 (some centres undefined) shows composite z-score at minimum 0.4?
Result: -1

Ask: Would you say CCC(=O)[C@@]1(O)C(=O)N2C(=C3C(=O)OCC[C@@H]31)N(Cc1ccccc1)C(C)=C(C(=O)OC)[C@H]2c1ccccc1 shows composite z-score at minimum 0.4?
Result: 1

Ask: Would you say CC(C)=NO[C@H](C)c1cn([C@H](CO)Cc2ccccc2)nn1 shows composite z-score at minimum 0.4?
Result: -1

Ask: Would you say COC(=O)CC=C[C@@H](C)[C@@H](C=NOC[C@H]1O[C@H](c2ccccc2)C=C[C@@H]1Oc1ccc(OC)cc1)NS(=O)(=O)c1ccc(C)cc1 shows composite z-score at minimum 0.4?
Result: -1

Ask: Would you say CCOC(=O)[C@H](Cc1ccccc1)NC(=O)CCC1CC(OC(=O)NCCc2ccc(F)cc2)CC2(CCCC(COC(=O)NCCc3ccccc3OC)O2)O1 (some centres undefined) shows composite z-score at minimum 0.4?
Result: 1

Ask: Would you say CC(=O)OC[C@H]1O[C@H](CCON=C2[C@H]3CCn4c(=O)n(-c5ccccc5)c(=O)n4[C@H]3[C@H](O)[C@@H]3O[C@H]23)C=C[C@@H]1OC(C)=O shows composite z-score at minimum 0.4?
Result: 1

Ask: Would you say C[C@@H](c1ccccc1)N1C(=O)[C@H]2[C@H]3[C@H](O)[C@H](O)CC(=NO[C@@H]4O[C@H](CO)[C@@H](O)[C@H](O)[C@H]4O)[C@@H]3CC[C@H]2C1=O shows composite z-score at minimum 0.4?
Result: -1

Ask: Would you say COC(=O)CC=C[C@@H](C)[C@@H](C=NO[C@H](C)c1cn([C@H](CO)Cc2ccccc2)nn1)NS(=O)(=O)c1ccc(C)cc1 shows composite z-score at minimum 0.4?
Result: -1
